tested on: 116/VM46; test: 116/VM46 activity, resistant line (Table 1); assay type: cell-based; conditions: ratio 116/VM46 (resistant) to HCT116 (sensitive)
Property: R/S ratio
Reply briefly: the number, and no unit.

// below: answered compounds
Structure notation	Target or test system	Quantitative result
COc1cccc(C(=O)O[C@H]2[C@@H]3[C@]4(OC(=O)C5CC5)CO[C@@H]4C[C@H](O)[C@@]3(C)C(=O)[C@H](OC(C)=O)C3=C(C)[C@@H](OC(=O)[C@H](O)[C@@H](NC(=O)c4ccccc4)c4ccccc4)C[C@]2(O)C3(C)C)c1	116/VM46	20
CC(=O)O[C@H]1C(=O)[C@@]2(C)[C@H]([C@H](OC(=O)c3cccc(Cl)c3)[C@]3(O)C[C@H](OC(=O)[C@H](O)[C@@H](NC(=O)c4ccccc4)c4ccccc4)C(C)=C1C3(C)C)[C@]1(OC(=O)C3CC3)CO[C@@H]1C[C@@H]2O	116/VM46	18
CC(=O)O[C@H]1C(=O)[C@@]2(C)[C@H]([C@H](OC(=O)c3cccc(N=[N+]=[N-])c3)[C@]3(O)C[C@H](OC(=O)[C@H](O)[C@@H](NC(=O)c4ccccc4)c4ccccc4)C(C)=C1C3(C)C)[C@]1(OC(=O)C3CC3)CO[C@@H]1C[C@@H]2O	116/VM46	10.4
CSC(=S)O[C@@]12CO[C@@H]1C[C@H](O)[C@@]1(C)C(=O)[C@H](OC(C)=O)C3=C(C)[C@@H](OC(=O)[C@H](O)[C@@H](NC(=O)c4ccccc4)c4ccccc4)C[C@@](O)([C@@H](OC(=O)c4cccc(Cl)c4)[C@H]21)C3(C)C	116/VM46	10.34

Kindly consider the entry below.
Data request: Which R/S ratio reading was recorded for the compound COC(=O)O[C@@]12CO[C@@H]1C[C@H](O)[C@@]1(C)C(=O)[C@H](OC(C)=O)C3=C(C)[C@@H](OC(=O)[C@H](O)[C@@H](NC(=O)c4ccccc4)c4ccccc4)C[C@@](O)([C@@H](OC(=O)c4cccc(OC)c4)[C@H]21)C3(C)C ?
Data returned: 129
